The entries below are paired with their reported IC50.
# Target Or Test System: UniProt K9N7C7
# Assay Text: biochemical
# Format: biochemical
# Condition Info: read-out: IC50 in enzyme assay (μM) MERS-CoV
Measurement Label: IC50 (µM)

>>> meas_value("CCCCC1CCC(OC(=O)N[C@@H](CC(C)C)C(=O)N[C@H](C=O)C[C@@H]2CCNC2=O)CC1 (stereo partly shown) [Compound 6e (Scheme 1)]")
0.15
>>> meas_value("CC(C)C[C@H](NC(=O)OC1CCCCC1)C(=O)N[C@@H](C[C@@H]1CCNC1=O)C(O)S(=O)(=O)[O-].[Na+] (stereo partly shown) [Compound 7a (Scheme 1)]")
0.15
>>> meas_value("CC(C)C[C@H](NC(=O)OC1CCC(F)(F)CC1)C(=O)N[C@@H](C[C@@H]1CCNC1=O)C(O)S(=O)(=O)[O-].[Na+] (stereo partly shown) [Compound 7h (Scheme 1)]")
0.08
>>> meas_value("CC(C)C[C@H](NC(=O)OCC1CCC(F)(F)CC1)C(=O)N[C@@H](C[C@@H]1CCNC1=O)C(O)S(=O)(=O)O (stereo partly shown) [Compound 7j (Scheme 1)]")
0.1

---

# Test system: MERS-CoV
# Assay Text: microbe, parasite or virus in culture
# Type: cell-based
# Condition Info: read-out: MERS-CoV EC50 (μM) Cell culture
Measurement Label: EC50

>>> meas_value("CC(C)C[C@H](NC(=O)OCC(C)(C)c1cccc(Cl)c1)C(=O)N[C@H](C=O)C[C@@H]1CCNC1=O [Compound 5g (Scheme 2)]")
"0.05 µM"

---

# Target Or Test System: 3CLpro of SARS-CoV (Severe acute respiratory syndrome coronavirus, UniProt P0C6X7)
# Type: biochemical
# Condition Info: read-out: IC50 in enzyme assay (μM) SARS-CoV
Measurement Label: IC50 (µM)

>>> meas_value("CC(C)C[C@H](NC(=O)OC1CCCCC1)C(=O)N[C@@H](C[C@@H]1CCNC1=O)C(O)S(=O)(=O)[O-].[Na+] (stereo partly shown) [Compound 7a (Scheme 1)]")
3.8
>>> meas_value("CCCCC1CCC(OC(=O)N[C@@H](CC(C)C)C(=O)N[C@H](C=O)C[C@@H]2CCNC2=O)CC1 (stereo partly shown) [Compound 6e (Scheme 1)]")
0.9
>>> meas_value("CC(C)C[C@H](NC(=O)OC1CCC(F)(F)CC1)C(=O)N[C@@H](C[C@@H]1CCNC1=O)C(O)S(=O)(=O)[O-].[Na+] (stereo partly shown) [Compound 7h (Scheme 1)]")
2.2
>>> meas_value("CC(C)C[C@H](NC(=O)OCC1CCC(F)(F)CC1)C(=O)N[C@@H](C[C@@H]1CCNC1=O)C(O)S(=O)(=O)O (stereo partly shown) [Compound 7j (Scheme 1)]")
1.1

---

# Target Or Test System: UniProt K9N7C7
# Assay Text: biochemical
# Type: biochemical
Measurement Label: IC50 (nM)

>>> meas_value("CCCCC1CCC(OC(=O)NC(CC(C)C)C(=O)NC(CC2CCNC2=O)C(O)S(=O)(=O)O)CC1 (stereo not drawn)")
150
>>> meas_value("CC(C)C[C@H](NC(=O)OC1CCC(C)(C)CC1)C(=O)N[C@@H](C[C@@H]1CCNC1=O)C(O)S(=O)(=O)O (stereo partly drawn)")
90
>>> meas_value("CC(C)C[C@H](NC(=O)OC(C)C1CCC(F)(F)CC1)C(=O)N[C@@H](C[C@@H]1CCNC1=O)C(O)S(=O)(=O)O (stereo partly drawn) [Compound 12c]")
120
>>> meas_value("CC(C)C[C@H](NC(=O)OCc1c(F)c(F)c(F)c(F)c1F)C(=O)N[C@@H](CC1CCNC1=O)C(O)S(=O)(=O)O (stereo partly drawn) [Compound 21c]")
70
>>> meas_value("CC(C)C[C@H](NC(=O)OCc1cccc(F)c1)C(=O)N[C@@H](C[C@@H]1CCNC1=O)C(O)S(=O)(=O)O (stereo partly drawn) [Compound 18c]")
80
>>> meas_value("CC(C)C[C@H](NC(=O)OC(Cc1ccccc1)C1CCC(F)(F)CC1)C(=O)N[C@@H](C[C@@H]1CCNC1=O)C(O)S(=O)(=O)O (stereo partly drawn) [Compound 14c]")
160
>>> meas_value("CCCC1CCC(COC(=O)NC(CC(C)C)C(=O)NC(CC2CCNC2=O)C(O)S(=O)(=O)O)CC1 (stereo not drawn)")
110
>>> meas_value("CC(C)C[C@H](NC(=O)OCCCC1CCCCC1)C(=O)N[C@@H](C[C@@H]1CCNC1=O)C(O)S(=O)(=O)O (stereo partly drawn) [Compound 7f (Scheme 1)]")
640

---

# System: Huh-7, CRFK or CCL1 cells
# Assay Text: Nonspecific cytotoxic effects (CC50), CytoTox 96 kit
# Condition Info: 72 h, 1 to 100 μM, Table 1
Measurement Label: CC50

>>> meas_value("CC(C)C[C@H](NC(=O)OCc1ccccc1)C(=O)N[C@@H](C[C@@H]1CCNC1=O)C(O)S(=O)(=O)[O-].[Na+] (stereo partly shown) [GC376, reference compound]")
"> 100 µM"

---

The entries below are paired with their reported CC50.
# Assay Text: in vitro
# Condition Info: human
Measurement Label: CC50 (µM)

>>> meas_value("O=C[C@H](C[C@@H]1CCNC1=O)NC(=O)[C@H](CC1CCCCC1)NC(=O)OC1(c2cccc(Cl)c2)CC1 [Compound 5q]")
36.5
>>> meas_value("O=C[C@H](C[C@@H]1CCNC1=O)NC(=O)[C@H](CC1CCCCC1)NC(=O)OC/C=C/c1cccc(Cl)c1 [Compound 5s]")
24.1

---

# Target Or Test System: 3CLpro of MERS-CoV (Middle East respiratory syndrome-related coronavirus, UniProt K9N7C7)
# Sequence (K9N7C7 3248-3553 limits assumed): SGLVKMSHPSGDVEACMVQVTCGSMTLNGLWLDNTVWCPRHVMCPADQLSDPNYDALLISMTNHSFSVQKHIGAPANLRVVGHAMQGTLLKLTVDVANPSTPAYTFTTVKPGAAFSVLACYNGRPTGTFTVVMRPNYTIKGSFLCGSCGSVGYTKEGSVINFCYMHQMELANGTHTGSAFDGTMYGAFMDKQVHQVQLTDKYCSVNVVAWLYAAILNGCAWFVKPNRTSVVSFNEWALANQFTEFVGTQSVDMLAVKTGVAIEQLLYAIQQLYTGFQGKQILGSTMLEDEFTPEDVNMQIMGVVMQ
# Assay Text: biochemical
# Format: biochemical
# Condition Info: read-out: IC50
Measurement Label: IC50 (nM)

>>> meas_value("CCCC(OC(=O)N[C@@H](CC(C)C)C(=O)N[C@@H](C[C@@H]1CCNC1=O)C(O)S(=O)(=O)O)c1ccccc1 (mixture of isomers) [Compound 23c]")
130

---

Record set of CC50 for target or system HG23 cells.
Measurement Label: CC50

>>> meas_value("CC(C)C[C@H](NC(=O)OCCCc1cccc(Cl)c1)C(=O)N[C@H](C=O)C[C@@H]1CCNC1=O")
"> 100 µM"
>>> meas_value("CC(C)(OC(=O)N[C@@H](CC1CCCCC1)C(=O)N[C@H](C=O)C[C@@H]1CCNC1=O)c1cccc(Cl)c1 [Compound 5a (Scheme 2)]")
"> 100 µM"
>>> meas_value("O=C(N[C@@H](CC1CCCCC1)C(=O)N[C@@H](C[C@@H]1CCNC1=O)C(O)S(=O)(=O)O)OC1(c2cccc(Cl)c2)CC1 (stereo partly shown)")
"42.3 µM"
>>> meas_value("CC(C)C[C@H](NC(=O)OCC(C)(C)Cc1cccc(Cl)c1)C(=O)N[C@H](C=O)C[C@@H]1CCNC1=O")
"> 100 µM"
>>> meas_value("CC(C)C[C@H](NC(=O)OCC(C)(C)c1ccccc1)C(=O)N[C@H](C=O)C[C@@H]1CCNC1=O [Compound 5f (Scheme 2)]")
"> 100 µM"
>>> meas_value("CC(C)C[C@H](NC(=O)OCCCc1cccc(Cl)c1)C(=O)N[C@@H](C[C@@H]1CCNC1=O)C(O)S(=O)(=O)O (stereo partly shown)")
"> 100 µM"
>>> meas_value("CC(C)C[C@H](NC(=O)OCCCc1ccccc1)C(=O)N[C@@H](C[C@@H]1CCNC1=O)C(O)S(=O)(=O)O (stereo partly shown)")
"> 100 µM"
>>> meas_value("CCCCCC(=O)OC([C@H](C[C@@H]1CCNC1=O)NC(=O)[C@H](CC1CCCCC1)NC(=O)OCC(C)(C)Cc1cccc(Cl)c1)S(=O)(=O)O (stereo partly shown)")
"20.7 µM"
>>> meas_value("CC(C)C[C@H](NC(=O)OC1(c2cccc(Cl)c2)CC1)C(=O)N[C@@H](C[C@@H]1CCNC1=O)C(O)S(=O)(=O)O (stereo partly shown)")
"> 100 µM"
>>> meas_value("CC(C)C[C@H](NC(=O)OC(C)(C)Cc1cccc(Cl)c1)C(=O)N[C@H](C=O)C[C@@H]1CCNC1=O [Compound 5i (Scheme 2)]")
"> 100 µM"
>>> meas_value("CC(C)C[C@H](NC(=O)OCC(C)(C)Cc1cccc(Cl)c1)C(=O)N[C@@H](C[C@@H]1CCNC1=O)C(O)S(=O)(=O)O (stereo partly shown)")
"> 100 µM"
>>> meas_value("CC(C)C[C@H](NC(=O)OCC(C)(C)c1cccc(Cl)c1)C(=O)N[C@H](C=O)C[C@@H]1CCNC1=O [Compound 5g (Scheme 2)]")
"> 100 µM"
>>> meas_value("CC(C)C[C@H](NC(=O)OC/C=C/c1cccc(Cl)c1)C(=O)N[C@@H](C[C@@H]1CCNC1=O)C(O)S(=O)(=O)O (stereo partly shown)")
"> 100 µM"

Data origin: patent US12583820B2
